Property: log10(MNTC); scope: individual compounds
- procedure.text: Cytotoxicity against GFP expressing human CEM cells assessed as maximal non-toxic concentration after 48 to 72 hrs by MTT assay
- Type: cell-based, CCRF-CEM
Give log10 of MNTC, with MNTC taken in µM.

Some compounds with known log10(MNTC) results, for comparison:
{"columns": ["compound.structure.string", "log10(MNTC)"],
 "data": [
  ["CCC(c1c(O)c(C(C)=O)c(O)c(C(C)=O)c1O)c1c(O)c(C(C)=O)c(O)c(C(C)=O)c1O", 0.34],
  ["CC(=O)c1c(O)c(C(C)=O)c(O)c(C(c2c(O)c(C(C)=O)c(O)c(C(C)=O)c2O)C2CCCCC2)c1O", 0.99],
  ["CC(C)CC(=O)c1c(O)c(C(=O)CC(C)C)c(O)c(C(c2ccc3c(c2)OCO3)c2c(O)c(C(=O)CC(C)C)c(O)c(C(=O)CC(C)C)c2O)c1O", 0.44],
  ["CC(C)CC(=O)c1c(O)c(C(=O)CC(C)C)c(O)c(C(c2ccccn2)c2c(O)c(C(=O)CC(C)C)c(O)c(C(=O)CC(C)C)c2O)c1O", 0.87],
  ["CC(=O)c1c(O)c(C(C)=O)c(O)c(C(c2ccco2)c2c(O)c(C(C)=O)c(O)c(C(C)=O)c2O)c1O", 1.18],
  ["CC(C)CC(=O)c1c(O)c(C=O)c(O)c(C(c2ccccn2)c2c(O)c(C=O)c(O)c(C(=O)CC(C)C)c2O)c1O", 1.20]
]}

# log10(MNTC) lookup, item `CC(C)C(=O)c1c(O)c(Cc2c(O)c(C(=O)C(C)C)c(O)c(C(=O)C(C)C)c2O)c(O)c(C(=O)C(C)C)c1O` -1.05

# input compound: `CC(C)CC(=O)c1c(O)c(C(=O)CC(C)C)c(O)c(C(c2ccc(O)cc2)c2c(O)c(C(=O)CC(C)C)c(O)c(C(=O)CC(C)C)c2O)c1O` ; wanted: its log10(MNTC) 0.16

* * *

Entries and their inhibition values follow.
- measurement.target: Human immunodeficiency virus type 1 reverse transcriptase (Human immunodeficiency virus 1) (UniProt Q72547)
- procedure.text: Inhibition of HIV1 reverse transcriptase at 20 ug/mL by EIA
Please give a number only; it is taken to be in %.

{"columns": ["compound.structure.string", "inhibition (%)"],
 "data": [
  ["CC(=O)c1c(O)c(C(C)=O)c(O)c(C(c2c(O)c(C(C)=O)c(O)c(C(C)=O)c2O)C2CCCCC2)c1O", 0],
  ["CC(C)CC(=O)c1c(O)c(C(=O)CC(C)C)c(O)c(C(c2ccccc2)c2c(O)c(C(=O)CC(C)C)c(O)c(C(=O)CC(C)C)c2O)c1O", 4.61]
]}

Read the next record carefully.
Would you kindly share the measured inhibition for `CC(C)CC(=O)c1c(O)c(C(=O)CC(C)C)c(O)c(C(c2ccccn2)c2c(O)c(C(=O)CC(C)C)c(O)c(C(=O)CC(C)C)c2O)c1O` ? 0

* * *

- procedure.text: Cytotoxicity against GFP expressing human CEM cells assessed as maximal non-toxic concentration after 48 to 72 hrs by MTT assay
- Format: cell-based, CCRF-CEM
value.type: log10(MNTC) (log10 of the value in µM)
Base-10 log of MNTC, unit µM.

Worked set:
{"columns": ["compound.structure.string", "value.type", "readout.value"],
 "data": [
  ["CC(C)CC(=O)c1c(O)c(C=O)c(O)c(Cc2c(O)c(C=O)c(O)c(C(=O)CC(C)C)c2O)c1O", "log10(MNTC)", 0.61],
  ["CC(=O)c1c(O)c(C(C)=O)c(O)c(C(c2ccc(O)cc2)c2c(O)c(C(C)=O)c(O)c(C(C)=O)c2O)c1O", "log10(MNTC)", 1.16],
  ["CC(=O)c1c(O)c(Cc2c(O)c(C(C)=O)c(O)c(C(C)=O)c2O)c(O)c(C(C)=O)c1O", "log10(MNTC)", -0.64],
  ["CC(=O)c1c(O)c(C(C)=O)c(O)c(C(c2c(O)c(C(C)=O)c(O)c(C(C)=O)c2O)c2ccnc3ccccc23)c1O", "log10(MNTC)", 1.55]
]}

# lookup: log10(MNTC) of `CC(=O)c1c(O)c(C(C)=O)c(O)c(C(c2ccc(N(C)C)cc2)c2c(O)c(C(C)=O)c(O)c(C(C)=O)c2O)c1O` 0.96

So what's the measured log10(MNTC) for this one? `CC(C)CC(=O)c1c(O)c(C(=O)CC(C)C)c(O)c(C(c2c(O)c(C(=O)CC(C)C)c(O)c(C(=O)CC(C)C)c2O)c2ccnc3ccccc23)c1O` 0.54

# lookup: log10(MNTC) of `Cc1cn([C@H]2C[C@H](N=[N+]=[N-])[C@@H](CO)O2)c(=O)[nH]c1=O` 0.70

* * *

- procedure.text: Cytotoxicity against GFP expressing human CEM cells after 48 to 72 hrs by MTT assay
- Type: cell-based, CCRF-CEM
Please note: CC50 exactly at 40 µM is 0.0. Only values below 40 µM get 1.0.

{"columns": ["compound", "qualitative.label"],
 "data": [
  ["Cc1cn([C@H]2C[C@H](N=[N+]=[N-])[C@@H](CO)O2)c(=O)[nH]c1=O [ZIDOVUDINE]", 1.0]
]}

Identify whether the compound `CC(C)CC(=O)c1c(O)c(C(=O)CC(C)C)c(O)c(C(c2ccccc2)c2c(O)c(C(=O)CC(C)C)c(O)c(C(=O)CC(C)C)c2O)c1O` records CC50 below 40 µM. 1.0

Is the reported CC50 for `CC(=O)c1c(O)c(C(C)=O)c(O)c(C(c2c(O)c(C(C)=O)c(O)c(C(C)=O)c2O)c2ccnc3ccccc23)c1O` strictly below 40 µM? 0.0

Problem: For the compound `CC(=O)c1c(O)c(C(C)=O)c(O)c(C(c2ccc(N(C)C)cc2)c2c(O)c(C(C)=O)c(O)c(C(C)=O)c2O)c1O` , is CC50 under 40 µM? 1.0

Dear colleague, could you confirm whether CC50 of `CC(C)CC(=O)c1c(O)c(C(=O)CC(C)C)c(O)c(C(c2ccc(OCc3ccccc3)cc2)c2c(O)c(C(=O)CC(C)C)c(O)c(C(=O)CC(C)C)c2O)c1O` falls below 40 µM? Thanks. 1.0

* * *

- measurement.target: Human immunodeficiency virus type 1 reverse transcriptase (Human immunodeficiency virus 1)
- procedure.text: Inhibition of HIV1 reverse transcriptase by EIA
value.type: EC50 (nM)
Form entry: value (nM) — number only.

{"columns": ["compound.structure.string", "measurement.target", "value.type", "unit.abbrev", "readout.value"],
 "data": [
  ["CC(=O)c1c(O)c(C(C)=O)c(O)c(C(c2c(O)c(C(C)=O)c(O)c(C(C)=O)c2O)c2ccnc3ccccc23)c1O", "Human immunodeficiency virus type 1 reverse transcriptase (Human immunodeficiency virus 1)", "EC50", "nM", 470]
]}

Now examine the next entry.
Any idea what EC50 came out for `CC(C)CC(=O)c1c(O)c(C(=O)CC(C)C)c(O)c(C(c2ccc(OCc3ccccc3)cc2)c2c(O)c(C(=O)CC(C)C)c(O)c(C(=O)CC(C)C)c2O)c1O` on Human immunodeficiency virus type 1 reverse transcriptase (Human immunodeficiency virus 1)? 1040

* * *

Entries annotated with measured inhibition
- measurement.target: Human immunodeficiency virus type 1 reverse transcriptase (Human immunodeficiency virus 1) (UniProt Q72547)
- procedure.text: Inhibition of HIV1 reverse transcriptase at 20 ug/mL by EIA
Your answer should be a plain number; it is taken to be in %.

Worked examples, 2 molecules total:
{"columns": ["compound.structure.string", "inhibition (%)"],
 "data": [
  ["CC(C)CC(=O)c1c(O)c(C(=O)CC(C)C)c(O)c(C(c2ccc(OCc3ccccc3)cc2)c2c(O)c(C(=O)CC(C)C)c(O)c(C(=O)CC(C)C)c2O)c1O", 87.8],
  ["CC(=O)c1c(O)c(C(C)=O)c(O)c(C(c2c(O)c(C(C)=O)c(O)c(C(C)=O)c2O)c2ccnc3ccccc23)c1O", 80.5]
]}

Query: inhibition; subject: `CC(=O)c1c(O)c(C(C)=O)c(O)c(C(c2ccco2)c2c(O)c(C(C)=O)c(O)c(C(C)=O)c2O)c1O` 16.2

GET /values?readout=inhibition&item= `CC(=O)c1c(O)c(C(C)=O)c(O)c(C(c2ccc(N(C)C)cc2)c2c(O)c(C(C)=O)c(O)c(C(C)=O)c2O)c1O` 13.4

* * *

- procedure.text: Cytotoxicity against GFP expressing human CEM cells assessed as maximal non-toxic concentration after 48 to 72 hrs by MTT assay
- Type: cell-based, CCRF-CEM
Threshold check on MNTC: at or above 4000 nM gives 1 (yes), strictly below gives 0 (no).

{"columns": ["compound.structure.string", "qualitative.label"],
 "data": [
  ["CC(C)CC(=O)c1c(O)c(C(=O)CC(C)C)c(O)c(C(c2ccccc2)c2c(O)c(C(=O)CC(C)C)c(O)c(C(=O)CC(C)C)c2O)c1O", "0 (no)"],
  ["CC(=O)c1c(O)c(C(C)=O)c(O)c(C(CCc2ccccc2)c2c(O)c(C(C)=O)c(O)c(C(C)=O)c2O)c1O", "0 (no)"],
  ["CC(C)CC(=O)c1c(O)c(C(=O)CC(C)C)c(O)c(C(CCc2ccccc2)c2c(O)c(C(=O)CC(C)C)c(O)c(C(=O)CC(C)C)c2O)c1O", "0 (no)"]
]}

Reported MNTC at or above 4000 nM? `CC(C)CC(=O)c1c(O)c(C(=O)CC(C)C)c(O)c(C(c2ccco2)c2c(O)c(C(=O)CC(C)C)c(O)c(C(=O)CC(C)C)c2O)c1O` 0 (no)

# bool: MNTC of `CC(C)CC(=O)c1c(O)c(C(=O)CC(C)C)c(O)c(C(c2ccc(OCc3ccccc3)cc2)c2c(O)c(C(=O)CC(C)C)c(O)c(C(=O)CC(C)C)c2O)c1O` >= 4000 nM 1 (yes)

Does MNTC meet or surpass 4000 nM for `CC(C)CC(=O)c1c(O)c(Cc2c(O)c(C(=O)CC(C)C)c(O)c(C(=O)CC(C)C)c2O)c(O)c(C(=O)CC(C)C)c1O` ? 0 (no)

Reported MNTC at or above 4000 nM? `CC(C)CC(=O)c1c(O)c(C=O)c(O)c(C(c2ccc(OCc3ccccc3)cc2)c2c(O)c(C=O)c(O)c(C(=O)CC(C)C)c2O)c1O` 1 (yes)
